Molecular target: Ac-VQIINK-NH2 (SEQ ID NO: 23) (N-terminal acetyl (Ac); C-terminal amide (NH2))
Assay: cell-based or functional assay
Square brackets hold non-standard residues; d marks the D form. Ends that are not written are not given here.
VALUE KIND: VQIINK Inhibition IC50 (µm)
Answer format: numeric, µm implied, no suffix.

Worked cases, answers included:
| BINDER | UNIT ABBREV | VQIINK Inhibition IC50 |
| --- | --- | --- |
| [dF][dE][dL][dR][dL][dH][dW][dH] [felrlhwh] | µm | 1.57 |
| [dW][dR][dE][dK][dV][dR][dW][dW] [wrekvrww] | µm | 7.34 |
| [dI][dR][dI][dH][dY][dH][dL][dK] [irihyhlk] | µm | 8.69 |
| [dW][dR][dL][dR][dI][dM][dW] [wrlrimw] | µm | 2.61 |
| [dL][dA][dI][dR][dI][dH][dY] [lairihy] | µm | 1.71 |

Looking for the measured VQIINK Inhibition IC50 of [dL][dR][dL][dK][dV][dR][dW][dW] [lrlkvrww] , can you help?
0.67

Looking for the measured VQIINK Inhibition IC50 of [dW][dR][dL][dA][dV][dR][dW] [wrlavrw] , can you help?
3.89

Looking for the measured VQIINK Inhibition IC50 of [dW][dK][dV][dN][dV][dR][dL][dW] [wkvnvrlw] , can you help?
1.29

Looking for the measured VQIINK Inhibition IC50 of [dL][dK][dI][dA][dI][dH][dY] [lkiaihy] , can you help?
4.77
